# Target or system: mouse ADAMTS7 (Mus musculus, UniProt Q68SA9, E373Q)
# Construct: Full-length mouse Adamts7 1-1857 (Uniprot Q68SA9, WT or E373Q catalytic mutant); expressed in transfected cells; host or cells: Human Coronary Artery Smooth Muscle Cells (HCA-SMC, Lonza), adenovirus 50 MOI
# Sequence (Q68SA9 221-1657 E373Q): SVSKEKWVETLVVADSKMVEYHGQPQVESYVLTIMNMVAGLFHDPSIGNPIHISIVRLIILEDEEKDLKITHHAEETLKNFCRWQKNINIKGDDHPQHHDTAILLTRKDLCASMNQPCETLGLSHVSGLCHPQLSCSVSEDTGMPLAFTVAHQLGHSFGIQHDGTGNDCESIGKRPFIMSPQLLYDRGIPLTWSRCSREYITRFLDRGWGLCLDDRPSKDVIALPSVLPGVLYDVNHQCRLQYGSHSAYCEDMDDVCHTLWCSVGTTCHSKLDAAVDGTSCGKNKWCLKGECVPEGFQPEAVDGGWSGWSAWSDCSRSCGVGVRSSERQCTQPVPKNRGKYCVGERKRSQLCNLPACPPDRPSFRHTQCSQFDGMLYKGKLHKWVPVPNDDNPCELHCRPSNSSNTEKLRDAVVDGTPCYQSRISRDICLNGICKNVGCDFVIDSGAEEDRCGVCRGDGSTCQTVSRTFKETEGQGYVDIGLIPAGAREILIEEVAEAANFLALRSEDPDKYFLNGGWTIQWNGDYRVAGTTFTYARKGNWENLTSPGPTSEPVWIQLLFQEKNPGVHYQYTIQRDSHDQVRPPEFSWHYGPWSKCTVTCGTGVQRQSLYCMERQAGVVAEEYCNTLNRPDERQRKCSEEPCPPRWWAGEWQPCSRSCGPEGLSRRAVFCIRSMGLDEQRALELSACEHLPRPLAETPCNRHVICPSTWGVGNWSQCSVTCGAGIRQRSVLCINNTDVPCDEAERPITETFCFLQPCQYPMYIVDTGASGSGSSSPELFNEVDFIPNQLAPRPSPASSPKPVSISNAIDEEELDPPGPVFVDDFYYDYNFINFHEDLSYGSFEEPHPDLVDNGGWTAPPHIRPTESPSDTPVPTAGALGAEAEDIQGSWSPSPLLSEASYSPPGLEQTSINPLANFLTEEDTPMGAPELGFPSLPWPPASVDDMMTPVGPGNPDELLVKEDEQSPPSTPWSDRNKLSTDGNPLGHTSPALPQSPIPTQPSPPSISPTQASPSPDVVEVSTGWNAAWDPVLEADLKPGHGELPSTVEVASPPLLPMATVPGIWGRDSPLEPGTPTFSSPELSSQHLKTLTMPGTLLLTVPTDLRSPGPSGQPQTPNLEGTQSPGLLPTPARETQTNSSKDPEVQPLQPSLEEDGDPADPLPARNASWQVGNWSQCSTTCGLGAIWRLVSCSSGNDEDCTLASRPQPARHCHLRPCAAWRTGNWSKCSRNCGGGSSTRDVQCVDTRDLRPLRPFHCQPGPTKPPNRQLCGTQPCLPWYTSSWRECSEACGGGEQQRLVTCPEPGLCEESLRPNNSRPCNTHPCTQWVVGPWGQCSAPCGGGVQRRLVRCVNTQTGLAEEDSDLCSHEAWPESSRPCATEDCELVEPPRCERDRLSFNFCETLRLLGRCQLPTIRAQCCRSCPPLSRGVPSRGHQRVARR
# Protocol description: TMT10 TAILS N-terminomics, SMC2 experiment (process replicates, trypsin/AspN digest)
# Type: cell-based
# Measurement context: log fold change, ADAMTS7 EQ over luciferase
Square brackets hold non-standard residues; d marks the D form. Ends that are not written are not given here.
Threshold rule: logFC.mEQ.over.Luc greater than or equal to -0.1 is met; below that, not met.

Completed entries (count: 5):
> print(dat)
                                  substance  cat
1  TGFBI_497 (VLTPPMGTVMDVLKGDNR; not fully specified (residue 6); listed as Homo sapiens)  met
2  TGFBI_524 (SAGLTETLNR; listed as Homo sapiens)  met
3  VASN_138 (HIQPGAFDTLDR; listed as Homo sapiens)  met
4  TGFBI_43 ([code q]HGPNVCAVQKVIGTNR; not fully specified; listed as Homo sapiens)  met
5  VIM_333 (LKGTNESLER; listed as Homo sapiens)  met

Continue with the substance presented below.
Evaluate VASP_229 (AIAGAKLR; listed as Homo sapiens) : logFC.mEQ.over.Luc at minimum -0.1?
met

The reported measurements were obtained from patent US20240368668A1.
